Tested on: S. aureus, ATCC BAA-44 (methicillin-resistant strain)
Type: cell-based, Staphylococcus aureus
Conditions: ATCC BAA-44, 24 h
Experimental: E. coli ATCC 25922, the methicillin-resistant strain of S. aureus, ATCC BAA-44, P. aeruginosa ATCC 25668 and S. epidermidis ATCC 700565 was a kind gift of Prof. Elena Reddi (Dept. of Biology, University of Padova, Italy). Cultures were maintained in Luria Bertani (LB) agar. MICs (Minimal inhibitory concentrations) of the peptides were determined using the broth microdilution method. […]
Non-standard residues stand in square brackets, D forms with d. Residues, ends and D or L forms follow the SMILES beside them. *: point of attachment. Leu(ol) = CC(C)C[C@H](N)CO; Octanoyl = CCCCCCCC(=O)*; Aib = CC(C)(N)C(=O)O
attribute_measured: MIC S. aureus (µM)
Give just the numeric value; µM need not be written.

Which MIC S. aureus is reported for this compound? CCCCCCCC(=O)N[C@@H](CC(C)C)C(=O)N[C@@H](CCCCN)C(=O)N[C@@H](CC(C)C)C(=O)NC(C)(C)C(=O)NCC(=O)NCC(=O)N[C@@H](CC(C)C)C(=O)NC(C)(C)C(=O)NCC(=O)N[C@H](C(=O)N[C@H](CO)CC(C)C)[C@@H](C)CC [L1K2] (Octanoyl-LKL[Aib]GGL[Aib]GI[Leu(ol)])
4.6

Please report the recorded MIC S. aureus for CCCCCCCC(=O)NC(C)(C)C(=O)N[C@@H](CCCCN)C(=O)N[C@@H](CC(C)C)C(=O)NC(C)(C)C(=O)N[C@@H](CCCCN)C(=O)NC(C)(C)C(=O)N[C@@H](CC(C)C)C(=O)NC(C)(C)C(=O)N[C@@H](CCCCN)C(=O)N[C@H](C(=O)N[C@H](CO)CC(C)C)[C@@H](C)CC [K2K5K9U6] (Octanoyl-[Aib]KL[Aib]K[Aib]L[Aib]KI[Leu(ol)]) .
4

Which MIC S. aureus reading was recorded for the compound CCCCCCCC(=O)NC(C)(C)C(=O)N[C@@H](CCCCN)C(=O)N[C@@H](CC(C)C)C(=O)NC(C)(C)C(=O)N[C@@H](CCCCN)C(=O)NCC(=O)N[C@@H](CC(C)C)C(=O)NC(C)(C)C(=O)NCC(=O)N[C@H](C(=O)N[C@H](CO)CC(C)C)[C@@H](C)CC [K2K5] (Octanoyl-[Aib]KL[Aib]KGL[Aib]GI[Leu(ol)]) ?
3.3

Name the reported MIC S. aureus value associated with the compound CCCCCCCC(=O)NC(C)(C)C(=O)N[C@@H](CCCCN)C(=O)N[C@@H](CC(C)C)C(=O)NC(C)(C)C(=O)N[C@@H](CCCCN)C(=O)NCC(=O)N[C@@H](CC(C)C)C(=O)NC(C)(C)C(=O)N[C@@H](CCCCN)C(=O)N[C@H](C(=O)N[C@H](CO)CC(C)C)[C@@H](C)CC [K2K5K9] (Octanoyl-[Aib]KL[Aib]KGL[Aib]KI[Leu(ol)])
4.3

* * *

Test system: human cells (lymphocytes, PMNs, monocytes, HL60, HeLa, A431, A549, CCD34Lu)
Experiment: Cytotoxicity on human cells, MTS reduction and LDH release
Format: cell-based
Details: 24 h, MTS/LDH EC50, all tested cells; in words
Excerpt: […] Twenty-four hours before the experiment, A431, HeLa, A549 and CC34-Lu cells were detached by means of trypsin treatment (Gibco), counted and seeded onto a 96 wells/plate (8×10^3 cells/well, Falcon). […] Plates were read with an ELISA reader (Amersham Biosciences) at 492 nm. Data were expressed as % of absorbance value compared to untreated cells (assumed as 100% viable). […]
Non-standard residues stand in square brackets, D forms with d. Residues, ends and D or L forms follow the SMILES beside them. *: point of attachment. Leu(ol) = CC(C)C[C@H](N)CO; Octanoyl = CCCCCCCC(=O)*; Aib = CC(C)(N)C(=O)O
attribute_measured: cytotoxicity compared with trichogin or the corresponding analog

compound	data_value
CCCCCCCC(=O)NC(C)(C)C(=O)N[C@@H](CCCCN)C(=O)N[C@@H](CC(C)C)C(=O)NC(C)(C)C(=O)N[C@@H](CCCCN)C(=O)NC(C)(C)C(=O)N[C@@H](CC(C)C)C(=O)NC(C)(C)C(=O)N[C@@H](CCCCN)C(=O)N[C@H](C(=O)N[C@H](CO)CC(C)C)[C@@H](C)CC [K2K5K9U6] (Octanoyl-[Aib]KL[Aib]K[Aib]L[Aib]KI[Leu(ol)])	increased cytotoxicity
CCCCCCCC(=O)NC(C)(C)C(=O)NCC(=O)N[C@@H](CC(C)C)C(=O)NC(C)(C)C(=O)N[C@@H](CCCCN)C(=O)NC(C)(C)C(=O)N[C@@H](CC(C)C)C(=O)NC(C)(C)C(=O)NCC(=O)N[C@H](C(=O)N[C@H](CO)CC(C)C)[C@@H](C)CC [K5U6] (Octanoyl-[Aib]GL[Aib]K[Aib]L[Aib]GI[Leu(ol)])	increased cytotoxicity
